- test-system: HLA-B*0702 (human)
- assay-protocol: competition with 125I probe peptide, purified HLA
Below, each of the binders is paired with its reported IC50 value.
measurement-name: IC50 (nM)

[[record]]
binder = "CPSGVKPDLSY (native HER2/neu peptide from position 600) [Her2/neu.600]"
quantitative_result = 183

[[record]]
binder = "FPCARVCYGL (analog peptide) [Her2/neu.336.F1]"
quantitative_result = 190

[[record]]
binder = "FPTNASLSFL (analog peptide) [Her2/neu.65.F1 (10-mer)]"
quantitative_result = 18

[[record]]
binder = "FPSGVKPDI (analog peptide) [Her2/neu.600.F1I9]"
quantitative_result = 6.3

[[record]]
binder = "CPSGVKPDLSI (analog peptide) [Her2/neu.600.I11]"
quantitative_result = 290

[[record]]
binder = "FPLNNTTPI (analog peptide) [Her2/neu.121.F1I9]"
quantitative_result = 1.6

[[record]]
binder = "CPLHNQEVTI (analog peptide) [Her2/neu.315.I10]"
quantitative_result = 458

[[record]]
binder = "CPAEQRASPL (native HER2/neu peptide from position 642) [Her2/neu.642]"
quantitative_result = 37

[[record]]
binder = "KPCARVCYGL (native HER2/neu peptide from position 336) [Her2/neu.336]"
quantitative_result = 149

[[record]]
binder = "FPTNASLSI (analog peptide) [Her2/neu.65.F1I9]"
quantitative_result = 4.6

[[record]]
binder = "FPLNNTTPV (analog peptide) [Her2/neu.121.F1]"
quantitative_result = 0.2

[[record]]
binder = "FPGGLRELQI (analog peptide) [Her2/neu.133.F1I10]"
quantitative_result = 306

[[record]]
binder = "MPNPEGRYTI (analog peptide) [Her2/neu.282.I10]"
quantitative_result = 34

[[record]]
binder = "FPMCKGSRCI (analog peptide) [Her2/neu.196.F1]"
quantitative_result = 183

[[record]]
binder = "FPTNASLSF (analog peptide) [Her2/neu.65.F1 (9-mer)]"
quantitative_result = 1.1

[[record]]
binder = "KPDLSYMPI (native HER2/neu peptide from position 605) [Her2/neu.605]"
quantitative_result = 76

